# Test system: IL-5 stimulated TF-1 cells
# assay_summary: TF-1 cell proliferation assay, IL-5 stimulated cultures
# Assay type: cell-based, human
# settings: Homo sapiens, TF-1, 72 h, Table 6; TF-1 cells with IL-5 (5 ng/mL), 72 hours; read-out: IL-5 IC-50
Counter-ions that a name gives are not always drawn.
readout_type: pIC50
API: returns pIC50 as number; meaning -log10 of concentration in mol/L.

>>> print(df.to_string())
                                   compound  value_measured
0                       CN1CCOc2cc(Br)ccc21            4.62
1                 Cc1cccc(C)c1NC(=O)CCC(C)C            3.92
2  Cc1cccc(C)c1NC(=O)Cc1ccccc1 [Compound 22, N-(2,6-dimethylphenyl)-2-phenylacetamide]            4.02
3                         Nc1ccc2c(c1)OCCO2            4.16
4  CCCCN1CCCCC1C(=O)Nc1c(C)cccc1C (stereo not shown) [Compound 25, Bupivicaine Hydrochloride, reference compound]            3.97

// Cc1cccc(C)c1NC(=O)C(C)(C)C [Compound 18, N-(2,6-dimethylphenyl)pivalamide] : pIC50 value = 4.10

// c1ccc2c(c1)OCC(C1=NCCN1)O2 (stereo not shown) [Compound 23, Idazoxan Hydrochloride, reference compound] : pIC50 value = 4.01

// Cc1ccccc1C(=O)NCc1cccnc1 [Compound 20, 2-methyl-N-(3-pyridinylmethyl)benzamide] : pIC50 value = 4.05

// "CN1CCOc2cc(C(=O)O)ccc21" : pIC50 value = 4.04

// CN1CCC(=C2c3ccccc3CC(=O)c3sccc32)CC1 [Compound 3, Ketotifen fumarate, reference compound] : pIC50 value = 5.05

Measured values drawn from patent US9012419B2 for this set.
